Target: human follicle-stimulating hormone receptor (FSHR) (Homo sapiens)
Construct: host or cells: CHO-K1
Sequence (P23945 18-695): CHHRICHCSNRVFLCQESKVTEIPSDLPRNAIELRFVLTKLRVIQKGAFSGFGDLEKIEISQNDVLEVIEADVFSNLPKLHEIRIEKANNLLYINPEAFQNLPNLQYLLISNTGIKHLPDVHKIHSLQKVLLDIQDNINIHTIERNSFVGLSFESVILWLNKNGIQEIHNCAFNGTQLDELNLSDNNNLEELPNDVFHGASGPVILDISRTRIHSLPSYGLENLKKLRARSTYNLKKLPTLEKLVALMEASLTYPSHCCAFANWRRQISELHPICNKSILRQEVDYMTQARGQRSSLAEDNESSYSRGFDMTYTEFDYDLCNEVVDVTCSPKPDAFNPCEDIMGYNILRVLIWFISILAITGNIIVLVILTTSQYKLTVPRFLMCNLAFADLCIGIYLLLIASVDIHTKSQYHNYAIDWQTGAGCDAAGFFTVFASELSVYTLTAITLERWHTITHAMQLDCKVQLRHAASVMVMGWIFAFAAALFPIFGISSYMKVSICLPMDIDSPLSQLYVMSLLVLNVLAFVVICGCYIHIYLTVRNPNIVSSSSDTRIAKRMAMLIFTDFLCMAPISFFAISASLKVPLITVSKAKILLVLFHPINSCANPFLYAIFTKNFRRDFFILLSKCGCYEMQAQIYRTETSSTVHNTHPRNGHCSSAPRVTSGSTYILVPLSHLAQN
Assay: Measurement of agonist cAMP production by activation of human FSHR
Type: cell-based
Details: CHO-K1 human FSHR cells, 30 minutes at 37° C., HTRF cAMP kit; read-out: hFSHR Agonist cAMP EC50
pEC50: −log10 of the molar value.
The entries below are paired with their reported pEC50.

Answered cases to consult:
MOLECULE	pEC50
COc1cc2c(cc1-c1cncc(OCCOCCOCCOCCOCCNC(=O)[C@H](CS(=O)(=O)O)NC(=O)CN3CCN(CC(=O)O)CCN(CC(=O)O)CCN(CC(=O)O)CC3)c1)-c1c(c(C(=O)N3CCCN(C(=O)C4CCC4)CC3)nn1-c1cccs1)CO2	7.00 to 8.00
COc1cc2c(cc1-c1cncc(OCCCNC(=O)[C@@H](CCC(=O)O)NC(=O)CCNC(=O)CN3CCN(CC(=O)O)CCN(CC(=O)O)CCN(CC(=O)O)CC3)c1)-c1c(c(C(=O)N3CCCN(C(=O)C4CCC4)CC3)nn1-c1cccs1)CO2	7.00 to 8.00
COc1cc2c(cc1-c1cccc(NC(=O)CCOCCOCCOCCNC(=O)CN3CCN(CC(=O)O)CCN(CC(=O)O)CCN(CC(=O)O)CC3)c1)-c1c(c(C(=O)N3CCOCC3(C)C)nn1-c1cc(Cl)cc(Cl)c1)CO2 [Compound 18A]	> 8.00

Consider the record given below.
Q: Looking for the measured pEC50 of COc1cc2c(cc1-c1cccc(NC(=O)CCC(=O)N(CCOCCOCCOCCOCCOCCC(=O)O)C3CCN(C(=O)CN4CCN(CC(=O)O)CCN(CC(=O)O)CCN(CC(=O)O)CC4)CC3)c1)-c1c(c(C(=O)N3CCOCC3(C)C)nn1-c1cc(Cl)cc(Cl)c1)CO2 , can you help?
A: > 8.00

Cited source: patent US20260137819A1
